- experimental_system: P. falciparum apicoplast DNA polymerase (Pf-apPOL) (Plasmodium falciparum)
- protocol_text: Fluorescence-based high-throughput DNA polymerase assay (molecular beacon), primary screen and dose-response
- Type: biochemical
- condition: DRC-2; 5'; concentration 80 (unit not given)
- Excerpt: The HT assay employs a molecular beacon, a stem-loop DNA template with a Cy3 dye and the Black Hole Quencher on the 3′ and 5′ ends of the DNA, respectively. Pf-apPOL concentration is based on a calculated absorptivity of ε280 = 56750 M^−1 cm^−1. […] To identify apPOL inhibitors we utilised our previously developed high-throughput DNA polymerase assay. […] The assay accurately recapitulates the kinetic behaviour of apPOL, as measured through more conventional low-throughput gel-based assays. […]
The compounds listed here are annotated with their % inhibition Apo pol 5'.
The answer should read as a number with its unit following.

Here are 2 compounds together with their reported answers.
O=C1N/C(=N/c2ccccc2Cl)S/C1=C/c1ccc([N+](=O)[O-])o1 :: 31%
CC(C)(C)c1cc(C(=O)C(C#N)=NNc2cccc(Cl)c2)no1 :: 61%

Continue with the compound presented below.
Item CCOc1ccc(/C=C2\N=C(c3cc([N+](=O)[O-])cc([N+](=O)[O-])c3)OC2=O)cc1 : provide % inhibition Apo pol 5'
60%

---

- experimental_system: P. falciparum apicoplast DNA polymerase (Pf-apPOL) (Plasmodium falciparum, UniProt Q8ILY1)
- Sequence (Q8ILY1 entry or part of it): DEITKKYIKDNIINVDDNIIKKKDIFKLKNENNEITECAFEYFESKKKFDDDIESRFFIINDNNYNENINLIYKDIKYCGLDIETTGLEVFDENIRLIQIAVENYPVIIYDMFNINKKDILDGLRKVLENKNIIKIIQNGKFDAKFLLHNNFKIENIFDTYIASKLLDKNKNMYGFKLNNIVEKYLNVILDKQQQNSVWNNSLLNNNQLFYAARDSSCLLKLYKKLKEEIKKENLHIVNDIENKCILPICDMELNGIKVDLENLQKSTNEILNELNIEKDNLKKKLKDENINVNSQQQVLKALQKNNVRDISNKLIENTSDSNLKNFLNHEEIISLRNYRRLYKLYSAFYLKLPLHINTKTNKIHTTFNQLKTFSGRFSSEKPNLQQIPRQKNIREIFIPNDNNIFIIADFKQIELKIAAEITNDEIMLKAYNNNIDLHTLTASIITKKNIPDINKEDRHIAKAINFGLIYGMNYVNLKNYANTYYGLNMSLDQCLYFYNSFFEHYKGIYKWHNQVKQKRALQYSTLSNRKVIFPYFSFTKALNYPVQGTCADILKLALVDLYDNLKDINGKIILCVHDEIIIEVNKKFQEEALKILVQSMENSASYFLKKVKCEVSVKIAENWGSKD
- protocol_text: Fluorescence-based high-throughput DNA polymerase assay (molecular beacon), primary screen and dose-response;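 for % inhibition ApPOL 90': test concentration in µM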
- Assay type: biochemical
- condition: DRC-2; 90'; concentration 80
Outcome: 1.0 for % inhibition ApPOL 90' of at least 70%; 0.0 for anything lower.

Below, 6 compounds whose answers are already recorded.
O=C(NCC1CCN(C2CCCC2)CC1)C(=O)NC1CCCC1 [KU0199596] :: 0.0
O=C(NNC(=O)c1ccc(Cl)cc1)C(=O)NNC(=O)c1ccc(Cl)cc1 [Molecule 25] :: 0.0
O=C(c1c[nH]c2ncccc12)N1CCCC1 [Molecule 63, O=C(c1c[nH]c2c1cccn2)N1CCCC1] :: 0.0
CC(NC(=O)Cc1cc(=O)[nH]c(SCc2cccc(Cl)c2)n1)c1ccccc1 (centres unmarked) [Molecule 67] :: 0.0
O=C(O)c1ccc(COc2cc([N+](=O)[O-])cc3cccnc23)cc1 [KU0058403] :: 1.0
COc1cccc(Oc2c(C(F)(F)F)oc3cc(OC(=O)N(C)C)ccc3c2=O)c1 [Molecule 52] :: 0.0

Say whether O=c1nc(/C=C/c2ccc(Br)cc2)oc2ccccc12 [KU0052629] shows % inhibition ApPOL 90' of 70% or more.
1.0

Assess whether reported % inhibition ApPOL 90' for Cc1ccc(C(=O)/C=C/C=C/C=C/N(C)C)o1 [Molecule 96, CN(/C=C/C=C/C=C/C(=O)c1ccc(o1)C)C] sits at 70% or higher.
0.0

Would you say COCCN(CCOC)Cc1c(O)ccc2c1OC(=Cc1cc(Br)ccc1OC)C2=O [KU0198471] shows % inhibition ApPOL 90' at minimum 70%?
1.0

Confirm if % inhibition ApPOL 90' reported for the compound NS(=O)(=O)c1ccc(NC(=O)c2ccc(N3C(=O)CCC3=O)cc2)cc1 [KU0025331] is 70% or above.
0.0

Say whether N#Cc1c(C2CCCCC2)nc(Sc2ccc(C(F)(F)F)cc2[N+](=O)[O-])[nH]c1=O [Molecule 20] shows % inhibition ApPOL 90' of 70% or more.
1.0

Could you please find out whether Cc1cccc2c(C(=O)NC(C)C)cc(N(C)C)nc12 [Molecule 47, CC(NC(=O)c1cc(nc2c1cccc2C)N(C)C)C] has % inhibition ApPOL 90' that meets 70% or exceeds it?
0.0

Could you tell me if the measured % inhibition ApPOL 90' of Cc1cccc(CC(=O)N2CCc3c(nc4cc(-c5ccccc5)[nH]n4c3=O)C2)c1 [Molecule 12] reaches 70% or more?
0.0

Hello, I need to know if CC(C)(C)OC(=O)COc1ccc2cc(-c3ccccc3)c(=O)oc2c1 [Molecule 81] has measured % inhibition ApPOL 90' not below 70%. Thanks!
0.0

Quick check, % inhibition ApPOL 90' >= 70%? CCCCc1ccc(NC(=O)CSc2nc(O)c(C#N)c(C3CCCCC3)n2)c(C)c1 [Molecule 8]
1.0
